Hello, the source for this data is ChEMBL document CHEMBL1126079, in case you need it.

- Organism: Cavia porcellus
- EXPERIMENT SUMMARY: Maximum inhibition of KCl-stimulated contraction of aortic strips of guinea pig
- Format: functional, Aorta
We label by threshold. Values of Max effect strictly beneath 70% are y. Values of 70% and up are n.

Some solved cases for reference:
# COMPOUND, DISCRETE LABEL
data = [
    ("COC(=O)C1=C(C)NC2=C(C(=O)CCC2)[C@@H]1c1ccc2c(c1)OCO2 (stereo in doubt; 9a)", "y"),
    ("CO[C@@H](COC(=O)C1=C(C)NC2=C(C(=O)CCC2)[C@H]1c1ccc2c(c1)OCO2)c1ccccc1", "y"),
    ("CO/C(O)=C1\\C(C)=NC2=C(C(=O)CCC2)C1c1ccc2c(c1)OCO2 (racemic)", "n"),
]

Now take the following compound into account.
QUERY: Hi there! Is Max effect for COC(=O)C1=C(C)NC2=C(C(=O)CCC2)[C@@H]1c1ccc2c(c1)OCO2 (stereo in doubt; 9b) below 70%, do you know?
RESULT: n
